- Assayed System: T1, IL10Rα and IL2Rγ on human primary cells (CD8 T cells, CD4 T cells, monocytes) (human) (UniProt Q13651)
- T1 sequence (looked up) 1: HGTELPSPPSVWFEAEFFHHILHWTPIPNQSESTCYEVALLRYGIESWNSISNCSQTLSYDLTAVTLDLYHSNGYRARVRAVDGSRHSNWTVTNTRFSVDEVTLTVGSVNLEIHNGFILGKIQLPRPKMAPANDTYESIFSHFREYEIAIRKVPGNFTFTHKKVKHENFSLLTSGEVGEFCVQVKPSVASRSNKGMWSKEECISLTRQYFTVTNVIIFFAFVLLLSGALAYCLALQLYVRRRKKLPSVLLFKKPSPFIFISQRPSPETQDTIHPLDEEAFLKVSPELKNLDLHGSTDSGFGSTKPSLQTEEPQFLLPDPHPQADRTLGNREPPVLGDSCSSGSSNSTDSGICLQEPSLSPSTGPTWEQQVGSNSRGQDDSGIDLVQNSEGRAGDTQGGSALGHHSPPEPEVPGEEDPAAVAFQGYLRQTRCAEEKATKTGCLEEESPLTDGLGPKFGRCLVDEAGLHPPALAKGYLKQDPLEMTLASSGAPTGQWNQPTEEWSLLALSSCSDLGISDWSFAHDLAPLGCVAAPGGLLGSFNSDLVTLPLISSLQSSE
- T1 sequence (looked up) 2: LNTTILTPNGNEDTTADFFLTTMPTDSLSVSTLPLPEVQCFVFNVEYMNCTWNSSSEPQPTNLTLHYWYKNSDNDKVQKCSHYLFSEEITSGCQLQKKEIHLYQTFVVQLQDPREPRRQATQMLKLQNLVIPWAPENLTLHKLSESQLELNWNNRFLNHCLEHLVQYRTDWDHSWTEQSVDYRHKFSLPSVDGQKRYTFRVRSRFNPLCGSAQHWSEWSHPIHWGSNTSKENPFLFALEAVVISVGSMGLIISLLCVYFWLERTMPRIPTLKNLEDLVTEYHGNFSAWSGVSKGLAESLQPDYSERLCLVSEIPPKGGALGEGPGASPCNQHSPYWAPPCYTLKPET
- Procedure Text: cell-based or functional assay
Recorded Metric: pSTAT3 (MFI) in CD4 T cells at 1 µM

Problem: Query (binder): hIL10Ra_VHH14-hIL2Rg_VHH19, linker …, tag his (bispecific antibody, not shown: small tags and cut ends) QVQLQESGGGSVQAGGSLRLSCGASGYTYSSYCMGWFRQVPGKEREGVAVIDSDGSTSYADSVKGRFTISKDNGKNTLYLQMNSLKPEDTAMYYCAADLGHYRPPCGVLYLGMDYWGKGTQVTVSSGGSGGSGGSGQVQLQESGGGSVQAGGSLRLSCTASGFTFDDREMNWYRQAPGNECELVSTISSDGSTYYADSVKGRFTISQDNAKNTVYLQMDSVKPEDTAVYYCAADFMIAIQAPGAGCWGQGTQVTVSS ; field requested: pSTAT3 (MFI) in CD4 T cells at 1 µM
Solution: 9970 MFI
